The following compounds are shown together with reported refractive index values.
Assay: refractive index (Na D-line) (dimensionless)
Settings: 298.15 K; 101.33 kPa; Liquid; Standard Abbe refractometry
Just the number, please, no unit after it.

smilesNotation	refractive index
c1ccsc1	1.5255
CCSCC	1.44
Cc1ccccc1C	1.5026
Cc1ccccc1	1.4939

Shifting focus to the compound that follows.
Note to self: refractive index recorded for CCCS was 1.4353
